The measured values listed here are drawn from patent US4826856A.

- PROTOCOL_NOTES: Bioavailability after oral administration in normal volunteers
- Format: in vivo, human
- ASSAY_CONTEXT: human, plasma, po, 20 mg, after acute administration, volunteer 1; read-out: T1/2 el. (converted)
EXPERIMENTAL_READOUT: half-life (h)
The reply should be a number in h, with the unit left off.

Fill in: half-life of CCOC(=O)C1=C(C)NC(C)=C(C(=O)OCCN2CCCCC2)C1c1cccc([N+](=O)[O-])c1 (stereo not shown) is ___
1.99

###

- PROTOCOL_NOTES: Bioavailability after oral administration in normal volunteers
- Assay type: in vivo, human
- ASSAY_CONTEXT: human, plasma, po, 20 mg, after acute administration, volunteer 3; read-out: T1/2 el. (converted)
- Protocol: The study was performed in 4 male subjects aged 26-43 years. Pharmacokinetic studies were performed both after acute and repeated administrations. Acute administration […] Further venous blood samples were withdrawn 15-30 minutes and 1.0-1.5-2.0-4.0-6.0-8.0 hours after treatment. Multiple-doses administration […] Blood samples were withdrawn 2-4-8-12 hours after the last treatment.
EXPERIMENTAL_READOUT: half-life (h)
Kindly answer with a numeric value in h, unit omitted.

State the recorded half-life for this entry: CCOC(=O)C1=C(C)NC(C)=C(C(=O)OCCN2CCCCC2)C1c1cccc([N+](=O)[O-])c1 (stereo not shown)
1.8
